Here the recorded viability, T/C is given for each entry.
# Test system: 388556-164-R-J1-PDC complex spheroid viability
# test.details: Anticancer human tumor 388556-164-R-J1-PDC patient-derived colon adenocarcinoma cell line growth inhibition [RAS]
# cond: second compound 0.0316 µM; first compound 0.00949 µM; stronger effect = lower value
Numbers only; they are read as %.

CC1(C)CCC(Nc2ncc(C(F)(F)F)c(-c3c[nH]c4c(P(C)(C)=O)c(C#N)ccc34)n2)CN1 (centres undefined) + C#Cc1c(F)ccc2cc(O)cc(-c3ncc4c(N5CC6CCC(C5)N6)nc(OCC56CCCN5CC(F)C6)nc4c3F)c12; 112

Q: Look up viability, T/C for this compound: CC1(C)CCC(Nc2ncc(C(F)(F)F)c(-c3c[nH]c4c(P(C)(C)=O)c(C#N)ccc34)n2)CN1 (centres undefined) + C=CC(=O)N1CCN(c2nc(OCC3CCCN3C)nc3c(F)c(-c4nc(N)cc(C)c4C(F)(F)F)c(Cl)cc23)C(C)C1
A: 89.8

Q: Which viability, T/C is reported for this compound? CCc1c2c(nc3ccc(O)cc13)-c1cc3c(c(=O)n1C2)COC(=O)[C@]3(O)CC + C#Cc1c(F)ccc2cc(O)cc(-c3ncc4c(N5CC6CCC(C5)N6)nc(OCC56CCCN5CC(F)C6)nc4c3F)c12
A: 83.6

Q: Would you mind telling me what viability, T/C value was observed for CCc1c2c(nc3ccc(O)cc13)-c1cc3c(c(=O)n1C2)COC(=O)[C@]3(O)CC + C=CC(=O)N1CCN(c2nc(OCC3CCCN3C)nc3c(F)c(-c4nc(N)cc(C)c4C(F)(F)F)c(Cl)cc23)C(C)C1 ?
A: 80.2

====

# Test system: 388556-164-R-J1-PDC complex spheroid viability
# test.details: Anticancer human tumor 388556-164-R-J1-PDC cell line growth inhibition [RAS];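 also: spheroids exposed to compound for 7 days before readout; 100% = DMSO vehicle control luminescence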
# cond: second compound 1 µM; first compound 3.16 µM; stronger effect = lower value
endpoint.label: viability, T/C

CC(=O)OC12COC1CC(O)C1(C)C(=O)C(O)C3=C(C)C(OC(=O)C(O)C(NC(=O)OC(C)(C)C)c4ccccc4)CC(O)(C(OC(=O)c4ccccc4)C21)C3(C)C (centres undefined) + C=CC(=O)N1CCN(c2nc(OCC3CCCN3C)nc3c(F)c(-c4nc(N)cc(C)c4C(F)(F)F)c(Cl)cc23)C(C)C1; 76%
C[C@@H](NC(=O)c1ncnc(N)c1Cl)c1ncc(C(=O)Nc2cc(C(F)(F)F)c(Cl)cn2)s1 + C=CC(=O)N1CCN(c2nc(OCC3CCCN3C)nc3c(F)c(-c4nc(N)cc(C)c4C(F)(F)F)c(Cl)cc23)C(C)C1; 119%
CCC(CC)c1cc(NC2CCC(N)C2)n2nccc2n1 (centres undefined) + C#Cc1c(F)ccc2cc(O)cc(-c3ncc4c(N5CC6CCC(C5)N6)nc(OCC56CCCN5CC(F)C6)nc4c3F)c12; 42%
CC1(O)CCCC1n1c(=O)c(C(F)F)cc2cnc(NC3CCN(S(C)(=O)=O)CC3)nc21 (centres undefined) + C=CC(=O)N1CCN(c2nc(OCC3CCCN3C)nc3c(F)c(-c4nc(N)cc(C)c4C(F)(F)F)c(Cl)cc23)C(C)C1; 104%
Cc1nc(N2CCC3(CC2)COC(C)C3N)c(CO)nc1Sc1ccnc(N)c1Cl (centres undefined) + C#Cc1c(F)ccc2cc(O)cc(-c3ncc4c(N5CC6CCC(C5)N6)nc(OCC56CCCN5CC(F)C6)nc4c3F)c12; 39.4%

Q: Give its viability, T/C value. Item: CC(=O)OC12COC1CC(O)C1(C)C(=O)C(O)C3=C(C)C(OC(=O)C(O)C(NC(=O)OC(C)(C)C)c4ccccc4)CC(O)(C(OC(=O)c4ccccc4)C21)C3(C)C (centres undefined) + C#Cc1c(F)ccc2cc(O)cc(-c3ncc4c(N5CC6CCC(C5)N6)nc(OCC56CCCN5CC(F)C6)nc4c3F)c12
A: 69%

Q: # lookup: viability, T/C of Cc1nc(N2CCC3(CC2)COC(C)C3N)c(CO)nc1Sc1ccnc(N)c1Cl (centres undefined) + C=CC(=O)N1CCN(c2nc(OCC3CCCN3C)nc3c(F)c(-c4nc(N)cc(C)c4C(F)(F)F)c(Cl)cc23)C(C)C1
A: 42.3%

Q: # lookup: viability, T/C of CC1(O)CCCC1n1c(=O)c(C(F)F)cc2cnc(NC3CCN(S(C)(=O)=O)CC3)nc21 (centres undefined) + C#Cc1c(F)ccc2cc(O)cc(-c3ncc4c(N5CC6CCC(C5)N6)nc(OCC56CCCN5CC(F)C6)nc4c3F)c12
A: 97.4%

Q: Quick check: viability, T/C of CC(C)NCC(C(=O)N1CCN(c2ncnc3c2C(C)CC3O)CC1)c1ccc(Cl)cc1 (centres undefined) + C=CC(=O)N1CCN(c2nc(OCC3CCCN3C)nc3c(F)c(-c4nc(N)cc(C)c4C(F)(F)F)c(Cl)cc23)C(C)C1 ?
A: 100%

====

# Test system: 388556-164-R-J1-PDC complex spheroid viability
# test.details: Anticancer human tumor 388556-164-R-J1-PDC cell line growth inhibition [RAS];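 also: spheroids exposed to compound for 7 days before readout; 100% = DMSO vehicle control luminescence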
# cond: second compound 0.0316 µM; first compound 0.1 µM; stronger effect = lower value
viability, T/C values, listed per item

Examples from the recorded data:
C=CC(=O)N1CCN(c2nc(OCC3CCCN3C)nc3c(F)c(-c4nc(N)cc(C)c4C(F)(F)F)c(Cl)cc23)C(C)C1 (stereo not drawn) + C#Cc1c(F)ccc2cc(O)cc(-c3ncc4c(N5CC6CCC(C5)N6)nc(OCC56CCCN5CC(F)C6)nc4c3F)c12; 107%
Nc1ccn(C2OC(CO)C(O)C2(F)F)c(=O)n1 (stereo not drawn) + C#Cc1c(F)ccc2cc(O)cc(-c3ncc4c(N5CC6CCC(C5)N6)nc(OCC56CCCN5CC(F)C6)nc4c3F)c12; 79.5%

Here's the next entry for you.
Q: What value of viability, T/C has been recorded for this entry: CCN1CCN(Cc2ccc(Nc3ncc(F)c(-c4cc(F)c5nc(C)n(C(C)C)c5c4)n3)nc2)CC1 + C=CC(=O)N1CCN(c2nc(OCC3CCCN3C)nc3c(F)c(-c4nc(N)cc(C)c4C(F)(F)F)c(Cl)cc23)C(C)C1
A: 93%

====

# System: 388556-164-R-J1-PDC complex spheroid viability
# test.details: Anticancer human tumor 388556-164-R-J1-PDC cell line growth inhibition [RAS];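 also: spheroids exposed to compound for 7 days before readout; 100% = DMSO vehicle control luminescence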
# cond: second compound 0.003 µM; first compound 0.1 µM; stronger effect = lower value
Recorded viability, T/C values for a group of compounds are listed next.
Number in %, nothing else.

Known results for compounds:
CCC(CC)c1cc(NC2CCC(N)C2)n2nccc2n1 (stereo not drawn) + CCn1c(-c2cccnc2C(C)OC)c2c3cc(ccc31)N1CCOC(CC(NC(=O)C(C(C)C)N(C)C(=O)C3(F)CCN(C(=O)C#CC(C)(C)N(C)C)CC3)C(=O)N3CCCC(N3)C(=O)OCC(C)(C)C2)C1; 105
NC1c2ccccc2OC12CCN(c1cnc3c(N4CCCc5ncccc54)n[nH]c3n1)CC2 (stereo not drawn) + CCn1c(-c2cc(N3CCN(C)CC3)cnc2C(C)OC)c2c3cc(ccc31)-c1csc(n1)CC(NC(=O)C1CC1C)C(=O)N1CCCC(N1)C(=O)OCC(C)(C)C2; 52

Q: Provide value of viability, T/C for this record tested with 388556-164-R-J1-PDC complex spheroid viability: Cc1nc(N2CCC3(CC2)COC(C)C3N)c(CO)nc1Sc1ccnc(N)c1Cl (stereo not drawn) + CCn1c(-c2cccnc2C(C)OC)c2c3cc(ccc31)N1CCOC(CC(NC(=O)C(C(C)C)N(C)C(=O)C3(F)CCN(C(=O)C#CC(C)(C)N(C)C)CC3)C(=O)N3CCCC(N3)C(=O)OCC(C)(C)C2)C1
A: 93.9

====

# Tested on: 388556-164-R-J1-PDC complex spheroid viability
# test.details: Anticancer human tumor 388556-164-R-J1-PDC cell line growth inhibition [RAS];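 also: spheroids exposed to compound for 7 days before readout; 100% = DMSO vehicle control luminescence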
# cond: second compound 10 µM; first compound 0.1 µM; stronger effect = lower value
endpoint.label: viability, T/C (%)
Write down the numeric answer in % and omit the unit.

// below: answered compounds
NC1c2ccccc2OC12CCN(c1cnc3c(N4CCCc5ncccc54)n[nH]c3n1)CC2 (stereo not drawn) + C#Cc1c(F)ccc2cc(O)cc(-c3ncc4c(N5CC6CCC(C5)N6)nc(OCC56CCCN5CC(F)C6)nc4c3F)c12; 31
CC(C)n1nc(-c2ccc3oc(N)nc3c2)c2c(N)ncnc21 + C#Cc1c(F)ccc2cc(O)cc(-c3ncc4c(N5CC6CCC(C5)N6)nc(OCC56CCCN5CC(F)C6)nc4c3F)c12; 29.9

Q: Report viability, T/C for CCN1CCN(Cc2ccc(Nc3ncc(F)c(-c4cc(F)c5nc(C)n(C(C)C)c5c4)n3)nc2)CC1 + C#Cc1c(F)ccc2cc(O)cc(-c3ncc4c(N5CC6CCC(C5)N6)nc(OCC56CCCN5CC(F)C6)nc4c3F)c12 please.
A: 57.7
